# Tested on: TNF-α in LPS-induced RAW264.7 cells
# METHOD NOTES: TNF-α concentration (ELISA) in supernatant of LPS-induced RAW264.7 cells
# Assay type: cell-based, murine
# EXPERIMENTAL PARAMETERS: Samples 10 μM; Control (LPS) 1425.60
Let's look at some sequences and their measured TNF-α.
OBSERVATION TYPE: TNF-α (pg/mL)

[[record]]
sequence_data = "RNPRGEEGGPWCF [Derived polypeptide 6, polypeptide derived from H-RN]"
scale_unit = "pg/mL"
measurement = 696.77

[[record]]
sequence_data = "KQPRGEEGGPW [Derived polypeptide 2, polypeptide derived from H-RN]"
scale_unit = "pg/mL"
measurement = 701.63

[[record]]
sequence_data = "RNPKGEEGGPW [Derived polypeptide 1, polypeptide derived from H-RN]"
scale_unit = "pg/mL"
measurement = 724.98

[[record]]
sequence_data = "NPRGEEGGP [Derived polypeptide 5, polypeptide derived from H-RN]"
scale_unit = "pg/mL"
measurement = 745.70

[[record]]
sequence_data = "QNPRGDEPGPW [Derived polypeptide 4, polypeptide derived from H-RN]"
scale_unit = "pg/mL"
measurement = 765.92

[[record]]
sequence_data = "RNPRPEEGGAY [Derived polypeptide 3, polypeptide derived from H-RN]"
scale_unit = "pg/mL"
measurement = 792.31


---

# METHOD NOTES: Cytotoxicity assay (MTS colorimetric method), relative growth rate
# Format: cell-based, murine
# EXPERIMENTAL PARAMETERS: mouse, RAW264.7 macrophage cells; 1 mM, 24 hours, MTS; blank 100.05±3.95%; read-out: relative growth rate (RGR) of cells
Where a SMILES comes first, the peptide text is derived from it.
OBSERVATION TYPE: viability at 24 h, 1000 µM (%)

[[record]]
compound = "N=C(N)NCCC[C@H](NC(=O)[C@@H]1CCCN1C(=O)[C@H](CC(N)=O)NC(=O)[C@@H](N)CCCNC(=N)N)C(=O)NCC(=O)N[C@@H](CCC(=O)O)C(=O)N[C@@H](CCC(=O)O)C(=O)NCC(=O)NCC(=O)N1CCC[C@H]1C(=O)N[C@@H](Cc1c[nH]c2ccccc12)C(=O)O [H-RN, RNPRGEEGGPW] (H-RNPRGEEGGPW-OH; N-terminus assumed)"
observation_type = "viability at 24 h, 1000 µM"
measurement = 95.8

